assay: compounds altering viability of human ES cells (AID 493140); details: human embryonic stem cell survival screen; active compounds read high;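 also: cells exposed to compounds for four days before counting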
propertyMeasured: survival
One number for each entry.

Some compounds with known survival results, for comparison:
CCN(CC)CCNC(=O)c1cc(Cl)c(N)cc1OC	14.7
CC[N+](CC)(CC)CCOc1cccc(OCC[N+](CC)(CC)CC)c1OCC[N+](CC)(CC)CC	28.5
NC(N)=Nc1nc(CSCC/C(N)=N/S(N)(=O)=O)cs1	16.5
Cc1cc(C)nc(NS(=O)(=O)c2ccc(N)cc2)n1	3.75
C[C@]12C[C@H](O)[C@H]3[C@@H](CCC4=CC(=O)CC[C@@]43C)[C@@H]1CC[C@@H]2C(=O)CO	6.08
CCCc1ncc(C[n+]2ccccc2C)c(N)n1	8.58
CCN(CC)CCOC(=O)C(Cc1cccc2ccccc12)CC1CCCO1 (stereo not drawn)	5.33
COc1ccc2[nH]cc(CCNC(C)=O)c2c1	15.4

Go through the list and state survival for each entry.
1. COc1cccc2c1C(=O)c1c(O)c3c(c(O)c1C2=O)C[C@@](O)(C(=O)CO)C[C@@H]3O[C@H]1C[C@H](N)[C@H](O)[C@H](C)O1
2. c1cnc(N2CCN(Cc3ccc4c(c3)OCO4)CC2)nc1

Out:
[0.167, 3.67]

Here are 2 compounds. What values of survival were reported for them?
1. NS(=O)(=O)c1cc(C(=O)O)c(NCc2ccco2)cc1Cl
2. Cc1cccc(N(C)C(=S)Oc2ccc3ccccc3c2)c1

Out:
10.1
27.3

# batch size: 7; output survival per entry
1. CCCOc1ccc(C(=O)OCCN(CC)CC)cc1N
2. CN1C(C(=O)Nc2ccccn2)=C(O)c2sccc2S1(=O)=O
3. CCn1cc(C(=O)O)c(=O)c2cc3c(cc21)OCO3
4. O=C(O)c1ccccc1OP(=O)(O)O
5. CCC(=O)O[C@]1(C(=O)SCF)[C@H](C)C[C@H]2[C@@H]3C[C@H](F)C4=CC(=O)C=C[C@]4(C)[C@@]3(F)[C@@H](O)C[C@@]21C
6. Nc1c(Br)cc(Br)cc1CNC1CCC(O)CC1 (stereo not drawn)
7. CCCCOc1ccc(OCCCN2CCOCC2)cc1

Out:
1. 5.92
2. 5.08
3. 33.2
4. 6.17
5. 6.58
6. 4.58
7. 2

Hi there! I need survival for each item below, if you can.
1. Cc1c(Nc2ncccc2C(=O)O)cccc1C(F)(F)F
2. Cc1c(NC(=O)c2cccnc2)c(=O)n(-c2ccccc2)n1C
3. Cc1cc(C(C)(C)C)cc(C)c1CC1=NCCN1
4. OCC(O)CN1CCN(c2ccccc2)CC1 (stereo not drawn)

Out:
1: 3.67; 2: 16.6; 3: 6.75; 4: 19.2
